ASSAYED_TARGET: human RAR-related Orphan Receptor beta (RORb), RORB (gene 6096)
PROTOCOL_NOTES: ATG_RORb_TRANS: Attagene TRANS-FACTORIAL HepG2 Assay for human RAR-related Orphan Receptor beta (RORb) (AID 2283010)
Experimental: ATG_TRANS is a cell-based, multiplexed-readout assay that uses HepG2, a human liver cell line, with measurements taken at 24 hours after chemical dosing in a 24-well plate.ATG_RORb_TRANS is one of 30 assay component(s) measured or calculated from the ATG_TRANS assay. […] This assay endpoint, ATG_RORb_TRANS, was analyzed in the positive analysis fitting direction relative to DMSO as the negative control and baseline of activity. […]
Inconclusive results are not listed. Calls of active or inactive are those of the source. How the source made its calls: active means hit-call score of the fitted dose curve at least 0.9, where 1 is the maximum; inconclusive means response in the unintended direction; inactive means score below 0.9.
PARAMETER_MEASURED: outcome

Example cases with answers are listed next.
INSERT INTO measurements (compound, parameter_measured, result) VALUES
  ('CC(=N[Si](C)(C)C)O[Si](C)(C)C', 'outcome', 'inactive'),
  ('C=COCC1CCC(COC=C)CC1 (stereo unspecified)', 'outcome', 'inactive'),
  ('c1ccc(OCCOc2ccccc2)cc1', 'outcome', 'inactive'),
  ('Nc1ccc(N)c([N+](=O)[O-])c1', 'outcome', 'inactive'),
  ('O=C(O)c1cc2ccccc2cc1O', 'outcome', 'inactive');

With those in mind, consider the next compound.
// Input: "CC(=O)OCC=C(C)CCC=C(C)CCC=C(C)C" . Output its outcome only.
inactive
